- Test system: NCI-H292 lung cancer cells
- experimental.details: FDA drug screening, complete media vs cholesterol-free media without statin (TABLE 1)
- Type: cell-based, human
- experimental.setup: Complete minus Cholesterol-free; >0 enhanced anti-cancer activity, about 0 neutral, <0 antagonist
Where a name gives a salt, the structure may show the parent alone.
readout.label: Difference
// keep it numeric: no unit symbol after the value

In: Fill in: Difference of Clc1ccc2nsnc2c1NC1=NCCN1 [Tizanidine (hydrochloride)] is ___
Out: 0.02

In: Fill in: Difference of CC(=O)OCC(=O)[C@@]1(O)CC[C@H]2[C@@H]3CCC4=CC(=O)CC[C@]4(C)[C@H]3[C@@H](O)C[C@@]21C [Hydrocortisone acetate] is ___
Out: −0.20

In: Fill in: Difference of CC(=O)OCC(=O)[C@@]1(O)[C@H](C)C[C@H]2[C@@H]3CCC4=CC(=O)C=C[C@]4(C)[C@@]3(F)[C@@H](O)C[C@@]21C [Dexamethasone acetate] is ___
Out: −0.04

* * *

- Test system: NCI-H292 lung cancer cells
- experimental.details: FDA drug screening, complete media vs cholesterol-free media without statin (TABLE 1)
- Format: cell-based, human
- experimental.setup: complete vs cholesterol-free media; >0 enhanced anti-cancer activity, about 0 neutral, <0 antagonist
Structures can show the parent of a compound that is named as a salt.
readout.label: Difference

In: Fill in: Difference of COc1ccc(C2C(=O)c3ccccc3C2=O)cc1 is ___
Out: 0.46

In: Fill in: Difference of Cc1ccc(-c2ncc(Cl)cc2-c2ccc(S(C)(=O)=O)cc2)cn1 is ___
Out: 0.28

In: Fill in: Difference of Cl.NCC(O)c1ccc(O)c(O)c1 (racemic) [DL-Norepinephrine (hydrochloride)] is ___
Out: 0.55

In: Fill in: Difference of CC(C)Oc1ccc2c(=O)c(-c3ccccc3)coc2c1 is ___
Out: 0.45

In: Fill in: Difference of COc1ccc(-c2cc(=O)c3c(O)cc(O[C@@H]4O[C@H](CO[C@@H]5O[C@@H](C)[C@H](O)[C@@H](O)[C@H]5O)[C@@H](O)[C@H](O)[C@H]4O)cc3o2)cc1O is ___
Out: 0.75

In: Fill in: Difference of CC(=O)OCC1=C(C(=O)O)N2C(=O)[C@@H](NC(=O)Cc3cccs3)[C@H]2SC1 [Cephalothin (sodium)] is ___
Out: 0.67

In: Fill in: Difference of CC(C)N1CCN(c2ccc(OCC3COC(Cn4cncn4)(c4ccc(Cl)cc4Cl)O3)cc2)CC1 (centres unmarked) is ___
Out: 0.11

In: Fill in: Difference of c1ccc(Cc2nc3ccccc3[nH]2)cc1 is ___
Out: 0.12

In: Fill in: Difference of CN1Cc2c(Cl)cc(Cl)cc2[C@H](c2cccc(S(=O)(=O)NCCOCCOCCNC(=O)NCCCCNC(=O)NCCOCCOCCNS(=O)(=O)c3cccc([C@@H]4CN(C)Cc5c(Cl)cc(Cl)cc54)c3)c2)C1 is ___
Out: 0.17

In: Fill in: Difference of CCCN(CCC)C(=O)C(CCC(=O)O)NC(=O)c1ccccc1 (centres unmarked) [Proglumide] is ___
Out: 0.69

In: Fill in: Difference of Cc1cc(=O)oc2cc(O)ccc12 is ___
Out: 0.45

In: Fill in: Difference of CN1[C@@H](CC(=O)c2ccccc2)CCC[C@H]1C[C@H](O)c1ccccc1 [Lobeline (hydrochloride)] is ___
Out: 0.55

In: Fill in: Difference of C[N+]1(C)[C@@H]2CC[C@H]1C[C@@H](OC(=O)C(CO)c1ccccc1)C2 (some centres unmarked) [Atropine methyl bromide] is ___
Out: 0.59

In: Fill in: Difference of C=CC(N)CCC(=O)O (centres unmarked) is ___
Out: 0.50

In: Fill in: Difference of O=C(OCc1ccccc1)c1ccccc1 [Benzyl benzoate] is ___
Out: 0.50

In: Fill in: Difference of COc1ccc2cccc(CCNC(C)=O)c2c1 is ___
Out: 0.15

In: Fill in: Difference of CCOC(=O)c1ccc(O)cc1 is ___
Out: 0.50
